Taken from ChEMBL document CHEMBL1681705.

biological target: Tyrosine-protein kinase ITK/TSK (Homo sapiens, UniProt Q08881); assay: Inhibition of recombinant GST-tagged full-length ITK expressed in baculovirus expression system after 30 mins by scintillation proximity assay
Sequence (Q08881 whole entry): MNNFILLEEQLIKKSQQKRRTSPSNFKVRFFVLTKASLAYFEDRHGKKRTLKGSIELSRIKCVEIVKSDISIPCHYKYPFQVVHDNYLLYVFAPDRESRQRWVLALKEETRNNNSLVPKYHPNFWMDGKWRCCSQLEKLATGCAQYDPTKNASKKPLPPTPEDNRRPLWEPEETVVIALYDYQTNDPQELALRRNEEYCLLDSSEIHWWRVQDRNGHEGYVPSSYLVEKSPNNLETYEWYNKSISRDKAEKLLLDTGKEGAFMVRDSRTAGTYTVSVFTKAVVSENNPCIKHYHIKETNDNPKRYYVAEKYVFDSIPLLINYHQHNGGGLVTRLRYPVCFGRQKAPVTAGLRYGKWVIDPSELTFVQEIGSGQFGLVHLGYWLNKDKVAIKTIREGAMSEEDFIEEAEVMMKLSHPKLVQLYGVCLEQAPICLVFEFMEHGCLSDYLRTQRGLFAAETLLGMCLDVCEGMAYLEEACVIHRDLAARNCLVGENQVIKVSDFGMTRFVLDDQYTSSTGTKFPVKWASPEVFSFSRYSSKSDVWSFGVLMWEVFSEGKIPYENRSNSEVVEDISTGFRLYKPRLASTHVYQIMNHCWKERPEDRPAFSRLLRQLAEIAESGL
Catalogue of IC50 values
Write down the numeric answer in nM and omit the unit.

Solved entries (count: 3):
>  <smiles_notation>
Cc1ccc2cc(-c3n[nH]c4ccc(NS(=O)(=O)c5c(C)noc5C)cc34)[nH]c2c1

>  <units>
nM

>  <IC50>
130

$$$$
>  <smiles_notation>
COCCNc1ccc2cc(-c3n[nH]c4ccccc34)[nH]c2c1

>  <units>
nM

>  <IC50>
260

$$$$
>  <smiles_notation>
c1ccc(Cc2ccc3cc(-c4n[nH]c5cccnc45)[nH]c3c2)cc1

>  <units>
nM

>  <IC50>
210

$$$$

For Tyrosine-protein kinase ITK/TSK (Homo sapiens, UniProt Q08881), give the measured IC50 of the entry Cc1ccc2cc(-c3n[nH]c4ccc(NC(=O)Nc5c(C)noc5C)cc34)[nH]c2c1
72

Fetch value of IC50 on Tyrosine-protein kinase ITK/TSK (Homo sapiens, UniProt Q08881) for CCNC(=O)Nc1ccc2[nH]nc(-c3cc4ccc(C)cc4[nH]3)c2c1 .
83

---

Below, each of the compounds is paired with its reported pIC50 value.
biological target: Tyrosine-protein kinase ITK/TSK (Homo sapiens); assay: Inhibition of recombinant GST-tagged full-length ITK expressed in baculovirus expression system after 30 mins by scintillation proximity assay
On this scale, pIC50 is minus log10 of a concentration expressed in M (mol/L).

Given Cc1ccc2cc(-c3n[nH]c4ccc(NC(=O)NC5CCCCC5)cc34)[nH]c2c1 , respond with its pIC50.
6.11

Check the records and state pIC50 for Cc1ccc2cc(-c3n[nH]c4ccc(NCc5ccccc5)cc34)[nH]c2c1
6.28

# return recorded pIC50 for entry Cn1cncc1CNC(=O)c1ccc2cc(-c3n[nH]c4ccccc34)[nH]c2c1
7.70

Fill in reported pIC50 for this entry: CN(C)CC#Cc1ccc2cc(-c3n[nH]c4cccnc34)[nH]c2c1
6.96

Quickly give me recorded pIC50 for COCCc1ccc2cc(-c3n[nH]c4cccnc34)[nH]c2c1
7.15

---

test: cells; conditions: Homo sapiens, T-cell
Description: Antiinflammatory activity in human CD4+ T cell assessed as inhibition of anti-CD3/anti-CD28-induced IL-2 production treated 30 mins before anti-CD3/anti-CD28 challenge measured after 48 hrs by electro-chemiluminescence assay
reported_metric: IC50 (nM)
// note: answer is a bare numeric in nM

Examples with their reported IC50 follow.
>  <molecule>
Cc1ccc2cc(-c3n[nH]c4ccc(NS(=O)(=O)c5c(C)nn(C)c5C)cc34)[nH]c2c1

>  <IC50, nM>
1000

$$$$
>  <molecule>
Cc1ccc2cc(-c3n[nH]c4ccc(NC5CCNC5)cc34)[nH]c2c1 (centres undefined)

>  <IC50, nM>
20

$$$$
>  <molecule>
Cc1ccc2cc(-c3n[nH]c4ccc(NC5CCN(C)CC5)cc34)[nH]c2c1

>  <IC50, nM>
120

$$$$

Give me measured IC50, please, for this molecule: Cc1ccc2cc(-c3n[nH]c4ccc(NS(=O)(=O)c5cn(C)cn5)cc34)[nH]c2c1
400

Input COc1cccc(S(=O)(=O)Nc2ccc3[nH]nc(-c4cc5ccc(C)cc5[nH]4)c3c2)c1 , output reported IC50.
900

Read off the recorded IC50 for c1ccc2c(-c3cc4ccc(NCC5CCCCC5)cc4[nH]3)n[nH]c2c1
3800

Consider the molecule O=C(NCc1ccccc1)c1ccc2cc(-c3n[nH]c4ccccc34)[nH]c2c1 and give its recorded IC50.
4100

Input Cc1ccc2cc(-c3n[nH]c4ccc(NS(=O)(=O)c5ccccc5F)cc34)[nH]c2c1 , output reported IC50.
1000

Item CCNC(=O)Nc1ccc2[nH]nc(-c3cc4ccc(C)cc4[nH]3)c2c1 : provide IC50
600

Give IC50 for the following molecule: Cc1ccc2cc(-c3n[nH]c4ccc(NC5CCNCC5)cc34)[nH]c2c1
90

Quote IC50 reported for COCCc1ccc2cc(-c3n[nH]c4cccnc34)[nH]c2c1 please.
600

Give the measured IC50 for CN(Cc1ccccc1)C(=O)c1ccc2cc(-c3n[nH]c4ccccc34)[nH]c2c1
9400

Fill in IC50 for record COCCNc1ccc2cc(-c3n[nH]c4ccccc34)[nH]c2c1
1200

Provide only the value of recorded IC50 for O=C(NCC1CCCCC1)c1ccc2cc(-c3n[nH]c4ccccc34)[nH]c2c1
9500
